# target entity: Tyrosine-protein kinase Tec (Homo sapiens, UniProt P42680)
# Sequence (P42680 whole entry): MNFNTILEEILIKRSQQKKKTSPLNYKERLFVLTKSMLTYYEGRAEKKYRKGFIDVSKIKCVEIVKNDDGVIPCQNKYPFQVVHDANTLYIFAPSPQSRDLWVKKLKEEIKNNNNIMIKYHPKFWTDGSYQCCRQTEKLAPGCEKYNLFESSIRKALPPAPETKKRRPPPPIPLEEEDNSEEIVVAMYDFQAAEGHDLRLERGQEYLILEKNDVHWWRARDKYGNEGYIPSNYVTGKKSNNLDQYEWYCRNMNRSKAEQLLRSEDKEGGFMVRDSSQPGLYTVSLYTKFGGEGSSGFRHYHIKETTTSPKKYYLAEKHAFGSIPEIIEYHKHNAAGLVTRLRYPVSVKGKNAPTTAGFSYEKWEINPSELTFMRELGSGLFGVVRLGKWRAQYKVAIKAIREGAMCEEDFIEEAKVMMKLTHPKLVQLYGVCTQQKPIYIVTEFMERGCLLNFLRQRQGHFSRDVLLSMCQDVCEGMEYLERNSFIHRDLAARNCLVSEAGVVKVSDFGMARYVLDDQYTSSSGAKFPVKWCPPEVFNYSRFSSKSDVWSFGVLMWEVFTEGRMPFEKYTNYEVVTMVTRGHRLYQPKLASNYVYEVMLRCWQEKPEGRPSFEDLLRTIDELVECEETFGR
endpoint: Kd (nM)
One number for each entry, in nM.

For this molecule ( O=C(Nc1cccc([C@@H]2CN(c3ncnc4[nH]ccc34)CCN2CCO)c1)Nc1c(F)cccc1N1CCCC1 ), measured Kd is 420
